experiment: Human pharmacokinetics, dose-ranging study; format: in vivo; settings: human, plasma, po, 300 mg, oral capsule; 300 mg, 3 per week; Day 15; fasted; read-out: AUC0-48
endpoint_name: AUC(0-t) (ng·h/mL)
Give bare numbers, in ng·h/mL.

Task: Give the measured AUC(0-t) of COc1cc(OC)cc(N2CCN(C(=O)Nc3nc4cc(F)ccc4nc3OC)CC2)c1 .
Result: 4140

###

assay: Human pharmacokinetics, dose-ranging study; type: in vivo; conditions: human, plasma, po, 775 mg, oral capsule; 775 mg, 1 per week; Day 1; fasted; read-out: Cmax
endpoint_name: Cmax (ng/mL)
Give bare numbers, in ng/mL.

Task: Give the measured Cmax of COc1cc(OC)cc(N2CCN(C(=O)Nc3nc4cc(F)ccc4nc3OC)CC2)c1 .
Result: 487

###

assay: Human pharmacokinetics, dose-ranging study; format: in vivo; details: human, plasma, po, 50 mg, oral capsule; 50 mg, 1 per week; Day 1; fasted; read-out: AUC0-48
endpoint_name: AUC(0-t)

Task: Give the measured AUC(0-t) of COc1cc(OC)cc(N2CCN(C(=O)Nc3nc4cc(F)ccc4nc3OC)CC2)c1 .
Result: 1310 ng·h/mL

###

test: Human pharmacokinetics, dose-ranging study; assay type: in vivo; conditions: human, plasma, po, 300 mg, oral capsule; 300 mg, 1 per week; Day 1; fed; read-out: Tmax
endpoint_name: Tmax
Note: state the figure and append the unit.

Task: Give the measured Tmax of COc1cc(OC)cc(N2CCN(C(=O)Nc3nc4cc(F)ccc4nc3OC)CC2)c1 .
Result: 4 h

###

test: Human pharmacokinetics, dose-ranging study; assay type: in vivo; details: human, plasma, po, 150 mg, oral capsule; 150 mg, 1 per week; Day 1; fasted; read-out: AUC0-24
endpoint_name: AUC(0-t)
Note: state the figure and append the unit.

Task: Give the measured AUC(0-t) of COc1cc(OC)cc(N2CCN(C(=O)Nc3nc4cc(F)ccc4nc3OC)CC2)c1 .
Result: 2690 ng·h/mL

###

assay: Human pharmacokinetics, dose-ranging study; format: in vivo; conditions: human, plasma, po, 225 mg, oral capsule; 225 mg, 1 per week; Day 1; fasted; read-out: AUC0-48
endpoint_name: AUC(0-t) (ng·h/mL)
Numbers only, in ng·h/mL.

Task: Give the measured AUC(0-t) of COc1cc(OC)cc(N2CCN(C(=O)Nc3nc4cc(F)ccc4nc3OC)CC2)c1 [RX-5902] .
Result: 4310

###

Experiment: Human pharmacokinetics, dose-ranging study
Format: in vivo
Conditions: human, plasma, po, 200 mg, oral capsule; 200 mg, 5 per week; Day 1; fasted; read-out: Tmax
Experimental: In a dose-ranging study, the pharmacokinetics (PK), safety and tolerability of RX-5902 at various oral doses were evaluated. […] Plasma concentrations were measured on Days 1 and 15, for 48 hrs, using a validated LC-MS/MS assay, and noncompartmental pharmacokinetic parameters were calculated using Phoenix WinNonlin, Version 6.4. […]
endpoint_name: Tmax (h)
Give bare numbers, in h.

Task: Give the measured Tmax of COc1cc(OC)cc(N2CCN(C(=O)Nc3nc4cc(F)ccc4nc3OC)CC2)c1 .
Result: 4

###

assay: Human pharmacokinetics, dose-ranging study; assay type: in vivo; settings: human, plasma, po, 200 mg, oral capsule; 200 mg, 5 per week; Day 15; fasted; read-out: Tmax
endpoint_name: Tmax (h)
Give bare numbers, in h.

Task: Give the measured Tmax of COc1cc(OC)cc(N2CCN(C(=O)Nc3nc4cc(F)ccc4nc3OC)CC2)c1 [RX-5902] .
Result: 2
